In this section we review reported yeast fitness values for a set of variants.
B1: tRNA (parent)
chain: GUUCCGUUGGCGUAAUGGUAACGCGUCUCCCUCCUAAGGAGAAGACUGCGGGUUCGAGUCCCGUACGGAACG

Variants of: B1
Assay: yeast fitness relative to wild type (ratio to wild type); higher = fitter; tRNA-Arg(CCU), competitive growth, 37 C, YPD
This sample holds only a part of the variants without activity.
# answer = number (no unit)

GUUCCGUUGGCGUAAUGGUAACGCGCCUCCCUCCUAAGGAGAAGAUUGCGAGUUCGAGUCCCGUACGGAACG    0.64
GUUCCGUUGGCGUAAUGGUAACGCGUUUCCCUCCUAAGGAGAAGACUGCGGGUUUGAGUCCCGUACGGAUCG    0.504
GUUCCGUUGGCGUAAUGGUAACGCGUCUCCCUCCGAAGGAGAAGACUGCGGGUUCGAGUCCCGUACGGAACG    0.676
GUUCCGUUGGCGUAGUGGUAACGCGUCUCCCUCCUAAGGAGAAGACUGUGGGUUCGAGUCUCGUACGGAACG    0.672
GUUCCGUAGGCGUAAUGGUAACGCGUCUCCCUCCUUAGGAGAAGACUGCGGGUUGGAGCCCCGUACGGAACG    0.579
GUUCCGUUGGCGUAAUGGUAACACGUCUCCCUCCUAAGGAGAAGAUUGCGGGUUCGAGUCCCGUCCGGAACG    0.54
GUUCCGUUCGCGUAAUGGUAACGCGUCUCCCUCCUAAGGAGAAGACUGCGGGUUCGAGUCCCGUCCGGAACG    0.67
GUUCCGUUGGCGUAAUGGUAACGCGUCUCUCUCCUAAGGAGAAGACUGCGGGUUCGAGUCCCGUACGGGACG    0.947
GUUCCGUUGGCGUAAUGGUAACGCGUCCCCCUCCUAAGGAGAAGACUGCGGGUUCGAGUCCCGUACGGAUCG    0.87
GUUCCGUUGGCGUAGUGGUAACGCGUCUCCCUCCUAAGGAGAAGACUGUGGGUUCGAGUCCCGUACGGAACG    1.07

Report yeast fitness for `GUUCGGUUGCCGUAAUGGUAACGCGUCUCCCUCCUAAGGAGAAGACUGCGGAUACGAGUCCCGUACGGAACG`
0.55

These measurements were taken from the RNAGym collection of RNA variant scans (doi:10.1126/science.aae0568).
